tested on: KYSE70 cells; assay: Proliferation IC50 (percent confluence, IncuCyte) in KYSE70 cells; type: cell-based; details: Homo sapiens, KYSE-70; KYSE70, 96-hour time point, one or two experiments; read-out: proliferation IC50
pIC50: −log10 of the molar value.
PARAMETER_MEASURED: pIC50

1) CCc1nc(N)nc(N)c1-c1cccc(C(F)(F)F)c1 = 7.50

----------
system: NRF2 activity in H1299-NQO1-YFP cells; test: NRF2 activity reporter IC50 in H1299-NQO1-YFP cells vs NRF2 pathway activators (IncuCyte, YFP/mCherry); format: cell-based; details: read-out: Avg IC50 μM, Table 3; average over activators; H1299-NQO1-YFP cells
PARAMETER_MEASURED: IC50 (µM)

1. CCc1nc(N)nc(N)c1-c1ccc(Cl)cc1 [PYR, reference compound] = 1.23

----------
The following molecules are shown together with reported IC50 values.
test system: NRF2 activity in H1299-NQO1-YFP cells; assay: NRF2 activity reporter IC50 in H1299-NQO1-YFP cells vs NRF2 pathway activators (IncuCyte, YFP/mCherry); format: cell-based; details: read-out: PRL295 5 μM IC50 AM ± SEM, Table 1; activator PRL295 5 μM; H1299-NQO1-YFP cells
PARAMETER_MEASURED: IC50 (µM)

1. CCC1=NC(N)=NC(=O)C1c1ccc(Cl)cc1 (stereo not shown) = 10.8
2. CCc1nc(N)nc(N)c1-c1cccc(C(F)(F)F)c1 = 0.06
3. C=CCCc1nc(N)nc(N)c1-c1cccc(C(F)(F)F)c1 = 0.106
4. CCc1nc(N)nc(N)c1-c1ccc(S(=O)(=O)C2CC3CC3C2)cc1 (stereo not shown) = 15.2
5. C#CCCCc1nc(N)nc(N)c1-c1cccc(Cl)c1 = 0.334
6. C#CCCC1(CCC(=O)NCCCc2nc(N)nc(N)c2-c2cccc(C(F)(F)F)c2)N=N1 = 0.153
7. CCc1nc(N)nc(N)c1-c1cc(Cl)cc(Cl)c1 = 0.079

----------
system: NRF2 activity in H1299-NQO1-YFP cells; experiment: NRF2 activity reporter IC50 in H1299-NQO1-YFP cells vs NRF2 pathway activators (IncuCyte, YFP/mCherry); format: cell-based; conditions: Table 6 NRF2 inhibitors; read-out: Avg IC50
PARAMETER_MEASURED: log10 IC50 (log10 of the value in nM)

1) COCCOCCc1nc(N)nc(N)c1-c1cccc(Cl)c1 = 2.71
2) CCc1nc(N)nc(N)c1-c1ccccc1 = 3.07
3) CCc1nc(N)nc(N)c1-c1ccc(S(=O)(=O)C2CC3CC3C2)cc1 (stereo not shown) = 4.17
4) C=CCCc1nc(N)nc(N)c1-c1cccc(C(F)(F)F)c1 = 2.15
5) CCC1=NC(N)=NC(=O)C1c1ccc(Cl)cc1 (stereo not shown) = 4.14
6) CCc1nc(N)nc(N)c1-c1cc(Cl)cc(Cl)c1 = 2.03
7) Nc1nc(N)c(-c2cccc(Cl)c2)c(CC2CCC2)n1 = 2.66
8) CCc1nc(N)nc(N)c1-c1ccc(C(C)(F)F)cc1 = 3.61
9) C#CCCCc1nc(N)nc(N)c1-c1cccc(Cl)c1 = 2.39
10) CCc1nc(N)nc(N)c1-c1ccc2c(c1)CCC2 = 2.76
11) Nc1ncc(-c2cccc(Cl)c2)c(N)n1 = 3.16

Data provenance: patent US20220289686A1
